Tested on: SK-MEL-5 melanoma
assay text: NCI tumour cell line growth inhibition, 48 h
The following molecules are shown together with reported TGI values.
Dear colleague, please return just the value in µM, with no unit written.

line notation	u	TGI
Oc1ccc(Cn2c(-c3ccc(O)c(O)c3)nc3ccccc32)cc1O	µM	50.9
COc1cc(/C=C2\COc3ccc(O)c(O)c3C2=O)cc(OC)c1	µM	3.13

Pending molecule:
(Q) # lookup: TGI of COc1ccc([N+](=O)[O-])c(S(=O)(=O)c2ccc(Cl)cc2)n1
(A) 24.9

* * *

The following molecules are shown together with reported TGI values.
System: RPMI-8226 leukemia
assay text: NCI tumour cell line growth inhibition, 48 h
Dear colleague, please return just the value in µM, with no unit written.

line notation	TGI (µM)
COC1=CC(c2ccc[nH]2)=N/C1=C\c1ccc[nH]1	0.57

(Q) # lookup: TGI of C=C(C)[C@@H]1CC[C@]2(C)[C@H](CC[C@@H]3[C@H]4[C@H]5OC[C@@]4(CCC5(C)C)CC[C@]32C)[C@@]1(C)CCCN
(A) 5.09
